# Test system: Type III protein secretion of the chimeric SopE‘-’Bla polypeptide (SPI1 type III protein secretion system)
# experiment: Primary assay: Type III protein secretion of the chimeric SopE'-'Bla polypeptide by Salmonella enterica
# Type: cell-based
# run_parameters: read-out: SopE IC50(μM)

>  <compound>
O=C(N[C@@H](CSCc1ccccc1)C(=O)O)/C(=C\c1ccc(OCc2ccncc2)cc1)NC(=O)c1ccc(C(F)(F)F)cc1 [Compound 59]

>  <IC50>
73.4 µM

$$$$
>  <compound>
Cc1ccc(C(=O)N/C(=C/c2ccc(Cl)c(Cl)c2)C(=O)NC(C(=O)O)C(C)(C)S)cc1 (stereo not drawn) [Compound 161]

>  <IC50>
56 µM

$$$$
>  <compound>
O=C(N[C@H](Cc1ccc(Cl)cc1)C(=O)O)/C(=C\c1cccc(C(F)(F)F)c1)NC(=O)c1ccc(Cl)cc1 [Compound 28]

>  <IC50>
86 µM

$$$$
>  <compound>
O=C(NC(Cc1ccc(Cl)cc1)C(=O)O)/C(=C\c1ccc(Cl)c(Cl)c1)NC(=O)c1ccc(C(F)(F)F)cc1 (stereo not drawn) [Compound 91]

>  <IC50>
7.6 µM

$$$$
>  <compound>
O=C(N[C@@H](COCc1ccccc1)C(=O)O)C(=Cc1ccc(Oc2ccccc2)cc1)NC(=O)c1ccc(C(F)(F)F)cc1 [Compound 15]

>  <IC50>
11 µM

$$$$
>  <compound>
O=C(N[C@@H](Cc1ccc(Cl)cc1)C(=O)O)/C(=C\c1ccc(OC(F)(F)F)cc1)NC(=O)C1CCN(c2nccc(C(F)(F)F)n2)CC1 [Compound 85]

>  <IC50>
35.2 µM

$$$$
>  <compound>
O=C(N[C@H](Cc1ccc(Cl)cc1)C(=O)O)/C(=C\c1cccc(C(F)(F)F)c1)NC(=O)c1ccc(OC(F)(F)F)cc1 [Compound 36]

>  <IC50>
21.6 µM

$$$$
>  <compound>
O=C(NN(Cc1cccc(C(F)(F)F)c1)C(=O)NC(Cc1ccc(Cl)cc1)C(=O)O)c1ccc(-c2ccccc2)cc1 (stereo not drawn) [Compound 51]

>  <IC50>
8 µM

$$$$
>  <compound>
O=C(NC1(C(=O)O)CCCCC1)/C(=C\c1ccc(Cl)c(Cl)c1)NC(=O)c1ccc(-c2ccccc2)cc1 [Compound 114]

>  <IC50>
7.3 µM

$$$$
>  <compound>
O=C(NC(=Cc1cccc(C(F)(F)F)c1)C(=O)N1C(c2ccc(F)cc2)SC[C@H]1C(=O)O)c1ccc(-c2ccccc2)cc1 (stereo partly drawn) [Compound 61]

>  <IC50>
3.7 µM

$$$$
>  <compound>
CC(C)(S)C(NC(=O)/C(=C\c1cccc(Oc2ccccc2)c1)NC(=O)c1ccc(-c2ccccc2)cc1)C(=O)O (stereo not drawn) [Compound 127]

>  <IC50>
10 µM

$$$$
>  <compound>
O=C(NN(Cc1ccc(OC(F)(F)F)cc1)C(=O)N[C@@H](CSCc1ccccc1)C(=O)O)c1ccc(C(F)(F)F)cc1 [Compound 11]

>  <IC50>
49 µM

$$$$
>  <compound>
O=C(N[C@@H](CSCc1ccccc1)C(=O)O)/C(=C\c1ccc(Br)cc1)NC(=O)c1ccc(C(F)(F)F)cc1 [Compound 41]

>  <IC50>
48 µM

$$$$
>  <compound>
O=C(NN(Cc1cccc(Oc2ccccc2)c1)C(=O)N[C@@H](COCc1ccccc1)C(=O)O)c1ccc(C(F)(F)F)cc1 [Compound 10]

>  <IC50>
22 µM

$$$$
>  <compound>
O=C(N[C@H](CSCc1ccccc1)C(=O)O)/C(=C\c1ccc(Cl)c(Cl)c1)NC(=O)c1cc2ccccc2s1 [Compound 67]

>  <IC50>
27 µM

$$$$
>  <compound>
O=C(N/C(=C/c1cccc(C(F)(F)F)c1)C(=O)N1CCCCC1C(=O)O)c1ccc(C(F)(F)F)cc1 (stereo not drawn) [Compound 118]

>  <IC50>
100 µM

$$$$
>  <compound>
O=C(N[C@H](CSCc1ccccc1)C(=O)O)/C(=C\c1ccc(C(F)(F)F)cc1)NC(=O)c1cc2ccccc2s1 [Compound 64]

>  <IC50>
49.4 µM

$$$$
>  <compound>
O=C(NC(CCSCc1ccccc1)C(=O)O)/C(=C\c1ccc(Cl)cc1Cl)NC(=O)c1ccc(-c2ccccc2)cc1 (stereo not drawn) [Compound 104]

>  <IC50>
3.8 µM

$$$$

----------
# Test system: Type III-dependent secretion of ExoU by P. aeruginosa PA103
# experiment: Tertiary assay: Type III-dependent secretion of ExoU by P. aeruginosa PA103
# Assay type: cell-based
# run_parameters: Pseudomonas aeruginosa, ExoU secreted into extracellular medium
Rule: IC50 below 50 µM gives yes, anything at or above gives no.

>  <compound>
O=C(N[C@@H](CSCc1ccccc1)C(=O)O)/C(=C\c1ccc2ccccc2c1)NC(=O)c1ccc(C(F)(F)F)cc1 [Compound 35]

>  <qualitative_label>
yes

$$$$
>  <compound>
O=C(NC(COCc1ccccc1)C(=O)O)/C(=C\c1ccc(Cl)c(Cl)c1)NC(=O)c1ccc(-c2ccccc2)cc1 (stereo not shown) [Compound 106]

>  <qualitative_label>
yes

$$$$
>  <compound>
O=C(N[C@@H](COCc1ccccc1)C(=O)O)/C(=C\c1ccc(Cl)c(Cl)c1)NC(=O)c1ccc(Oc2ccccc2)cc1 [Compound 49]

>  <qualitative_label>
no

$$$$
>  <compound>
O=C(N[C@H](COCc1ccccc1)C(=O)O)/C(=C\c1ccc(I)cc1)NC(=O)C1CCN(c2nccc(C(F)(F)F)n2)CC1 [Compound 75]

>  <qualitative_label>
no

$$$$
>  <compound>
O=C(N[C@H](COCc1ccccc1)C(=O)O)/C(=C\c1cccc(C(F)(F)F)c1)NC(=O)C1CCN(c2nccc(C(F)(F)F)n2)CC1 [Compound 77]

>  <qualitative_label>
no

$$$$
>  <compound>
O=C(N[C@@H](CSCc1ccccc1)C(=O)O)/C(=C\c1ccc(Cl)cc1Cl)NC(=O)c1ccc(C(F)(F)F)cc1 [Compound 154]

>  <qualitative_label>
yes

$$$$
>  <compound>
O=C(N[C@H](COCc1ccccc1)C(=O)O)/C(=C\c1ccc(Cl)c(Cl)c1)NC(=O)c1ccc(OC(F)(F)F)cc1 [Compound 30]

>  <qualitative_label>
no

$$$$
>  <compound>
O=C(N[C@@H](CSCc1ccccc1)C(=O)O)/C(=C\c1ccc(Oc2ccccc2)cc1)NC(=O)c1ccc(Cl)cc1 [Compound 44]

>  <qualitative_label>
yes

$$$$
>  <compound>
O=C(N[C@@H](CSCc1ccccc1)C(=O)O)/C(=C\c1ccc(OC(F)(F)F)cc1)NC(=O)C1CCN(c2nccc(C(F)(F)F)n2)CC1 [Compound 84]

>  <qualitative_label>
no

$$$$

----------
Property: IC50; scope: individual compounds
# Tested on: Type III protein secretion of the chimeric SopE‘-’Bla polypeptide (SPI1 type III protein secretion system)
# experiment: Primary assay: Type III protein secretion of the chimeric SopE'-'Bla polypeptide by Salmonella enterica
# Type: cell-based
# run_parameters: read-out: SopE IC50(μM)
quantity_name: IC50 (µM)

>  <compound>
COc1ccc(/C=C(/NC(=O)c2ccc(-c3ccccc3)cc2)C(=O)N[C@@H](Cc2ccc(Cl)cc2)C(=O)O)cc1OC (stereo in doubt) [Compound 50]

>  <quantity_name>
IC50

>  <recorded_number>
79.4

$$$$
>  <compound>
O=C(NC(Cc1ccc(C(F)(F)F)cc1)C(=O)O)/C(=C\c1cccc(C(F)(F)F)c1)NC(=O)c1ccc(-c2ccccc2)cc1 (centres unmarked) [Compound 72]

>  <quantity_name>
IC50

>  <recorded_number>
12.8

$$$$
>  <compound>
O=C(N[C@@H](Cc1ccc(Cl)cc1)C(=O)O)/C(=C\c1cccc(C(F)(F)F)c1)NC(=O)c1ccc(Oc2ccccc2)cc1 [Compound 47]

>  <quantity_name>
IC50

>  <recorded_number>
12.4

$$$$
>  <compound>
O=C(O)CCCCNC(=O)/C(=C\c1ccc(Cl)c(Cl)c1)NC(=O)c1ccc(-c2ccccc2)cc1 [Compound 113]

>  <quantity_name>
IC50

>  <recorded_number>
14.5

$$$$
>  <compound>
CC(C)(S)C(NC(=O)/C(=C\c1ccc(C(F)(F)F)cc1)NC(=O)c1ccc(-c2ccccc2)cc1)C(=O)O (centres unmarked) [Compound 124]

>  <quantity_name>
IC50

>  <recorded_number>
16

$$$$
>  <compound>
O=C(N[C@@H](Cc1ccc(Cl)cc1)C(=O)O)/C(=C\c1ccc(Cl)c(Cl)c1)NC(=O)c1cc2ccccc2s1 [Compound 66]

>  <quantity_name>
IC50

>  <recorded_number>
19

$$$$
>  <compound>
Cc1ccc(/C=C(/NC(=O)c2ccc(-c3ccccc3)cc2)C(=O)NC(C(=O)O)C(C)(C)S)s1 (centres unmarked) [Compound 93]

>  <quantity_name>
IC50

>  <recorded_number>
1.4

$$$$
>  <compound>
O=C(N/C(=C/c1ccc(Cl)c(Cl)c1)C(=O)N1CCCCC1C(=O)O)c1ccc(-c2ccccc2)cc1 (centres unmarked) [Compound 107]

>  <quantity_name>
IC50

>  <recorded_number>
8

$$$$

FYI, the data here is from patent US20050250819A1.
